The reported measurements were obtained from paper PMC10308901.

# tested.target: T1, Mycobacterium marinum GroEL2, recombinant, biotinylated AVI-tagged form (Mycobacterium marinum, UniProt B2HQP9 1-541)
# T1 construct: also called Mmr GroEL2; biotinylated GroEL protein
# test.name: BLI
# experimental.setup: both partners purified
pKd: −log10 of the molar value.
observable: pKd

Enquiry: Form field: reported pKd of GroEL2 sybody number 7 (VHH, not shown: Myc, C-terminal, kept; His6, C-terminal, kept) VHH: QVQLVESGGGLVQAGGSLRLSCAASGFPVNDAWMYWYRQAPGKEREWVAAIMSMGFGTWYADSVKGRFTISRDNAKNTVYLQMNSLKPEDTAVYYCNVKDRGKEHFSYDYWGQGTQVTVSA
Return: ~7.00
